targetOfAssay: Epidermal growth factor receptor (Homo sapiens);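 note: values are mean inhibition figures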
assayConditions: at 1 µM
outcomeMeasure: inhibition (%)
All answers are understood in %, so give the number only.

>  <structureNotation>
FC(F)(F)c1cccc(-c2nn3ncccc3c2-c2ccnc(Nc3ccc4c(c3)OCCO4)n2)c1

>  <inhibition (%)>
45.3

$$$$
>  <structureNotation>
COc1ccc2c(-c3ccnc(Nc4cccc(OC(F)(F)F)c4)n3)cnn2n1

>  <inhibition (%)>
2.97

$$$$
>  <structureNotation>
CCOc1ccc2c(-c3ccnc(Nc4cccc(C(F)(F)F)c4)n3)cnn2n1

>  <inhibition (%)>
1.97

$$$$
>  <structureNotation>
O=C(O[C@H]1CN[C@H](C#Cc2cc3ncnc(Nc4ccc(Cc5ccccc5)cc4)c3s2)C1)N1CCOCC1

>  <inhibition (%)>
69.9

$$$$
>  <structureNotation>
COc1ccc(-c2cc3c(N)ncnc3o2)cc1

>  <inhibition (%)>
2

$$$$

Endpoint output: inhibition of N#Cc1c(NC(=O)c2ccc(F)cc2)sc2c1CCCC2 . Value? 1.78

Endpoint output: inhibition of COc1cc2c(cc1Nc1nc(Nc3ccsc3C(N)=O)c3cc[nH]c3n1)N(C(=O)CN(C)C)CCC2(C)C . Value? 9.19

Endpoint output: inhibition of CCn1c(-c2nonc2N)nc2cnc(Oc3cccc(NC(=O)c4ccc(N(C)C)cc4)c3)cc21 . Value? 1.68

Endpoint output: inhibition of COc1ccc(-c2oc3ncnc(N)c3c2-c2ccc(NC(=O)Nc3cc(C(F)(F)F)ccc3F)cc2)cc1 . Value? 2.22

Endpoint output: inhibition of CNC(=O)c1cccc(C#Cc2cncnc2Nc2ccc(OCc3cccc(F)c3)c(Cl)c2)c1 . Value? 82.2

###

targetOfAssay: Dual specificity tyrosine-phosphorylation-regulated kinase 2 (Homo sapiens);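 note: reported values are means of DYRK2 inhibition from screening the GSK PKIS collection at 1 µM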
assayConditions: at 1 µM
outcomeMeasure: inhibition (%)
All answers are understood in %, so give the number only.

>  <structureNotation>
N#Cc1c(NC(=O)c2ccc(F)cc2)sc2c1CCCC2

>  <readingUnit>
%

>  <inhibition>
0.26

$$$$
>  <structureNotation>
COc1cccc(-n2ncc3c(N/N=C/c4ccc(F)cc4)ncnc32)c1

>  <readingUnit>
%

>  <inhibition>
18.8

$$$$
>  <structureNotation>
CS(=O)(=O)CCNCc1ccc(-c2ccc3ncnc(Nc4ccc(OCc5ccccc5)c(C(F)(F)F)c4)c3c2)o1

>  <readingUnit>
%

>  <inhibition>
0.91

$$$$
>  <structureNotation>
CN1CCC(n2cnc(-c3ccc(F)cc3)c2-c2ccnc(Nc3ccccc3)n2)CC1

>  <readingUnit>
%

>  <inhibition>
3.27

$$$$

# input for lookup
Endpoint output: inhibition of [O-][S+]1CCN(Cc2ccc(-c3ccc4ncnc(Nc5ccc(OCc6cccc(F)c6)c(Cl)c5)c4c3)o2)CC1 . Value? 4.13

###

Reported values of inhibition for individual entries
targetOfAssay: Tyrosine-protein kinase JAK3 (Homo sapiens) (UniProt P52333)
Sequence (whole entry): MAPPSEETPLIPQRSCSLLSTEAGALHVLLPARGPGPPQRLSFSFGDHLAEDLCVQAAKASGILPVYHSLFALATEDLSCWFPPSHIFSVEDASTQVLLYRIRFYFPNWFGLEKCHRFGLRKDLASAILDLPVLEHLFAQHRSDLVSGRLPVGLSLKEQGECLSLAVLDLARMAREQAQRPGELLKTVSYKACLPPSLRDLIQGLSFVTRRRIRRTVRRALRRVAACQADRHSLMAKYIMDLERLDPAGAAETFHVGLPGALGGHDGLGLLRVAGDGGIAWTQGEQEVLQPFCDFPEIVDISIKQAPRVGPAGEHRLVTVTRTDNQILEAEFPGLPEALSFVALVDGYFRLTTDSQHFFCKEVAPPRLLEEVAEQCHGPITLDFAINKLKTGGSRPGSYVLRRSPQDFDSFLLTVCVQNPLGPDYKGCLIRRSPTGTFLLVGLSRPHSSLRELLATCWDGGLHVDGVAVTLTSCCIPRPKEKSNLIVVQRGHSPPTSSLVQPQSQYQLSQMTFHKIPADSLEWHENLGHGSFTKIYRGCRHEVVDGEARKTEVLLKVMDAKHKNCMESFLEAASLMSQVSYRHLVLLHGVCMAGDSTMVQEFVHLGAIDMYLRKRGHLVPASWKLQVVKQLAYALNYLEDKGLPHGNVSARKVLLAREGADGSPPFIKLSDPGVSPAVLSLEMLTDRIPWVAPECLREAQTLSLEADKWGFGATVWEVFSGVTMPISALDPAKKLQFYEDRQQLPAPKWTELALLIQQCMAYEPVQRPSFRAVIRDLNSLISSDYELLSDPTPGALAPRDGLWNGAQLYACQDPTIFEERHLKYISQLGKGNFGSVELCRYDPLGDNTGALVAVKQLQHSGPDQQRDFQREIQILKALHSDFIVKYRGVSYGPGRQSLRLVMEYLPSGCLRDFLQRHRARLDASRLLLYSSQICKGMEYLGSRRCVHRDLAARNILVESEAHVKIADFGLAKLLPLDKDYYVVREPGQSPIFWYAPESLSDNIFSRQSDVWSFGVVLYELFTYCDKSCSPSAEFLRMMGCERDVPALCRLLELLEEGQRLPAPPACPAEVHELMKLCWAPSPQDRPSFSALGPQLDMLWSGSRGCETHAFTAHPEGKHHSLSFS
assayConditions: at 1 µM
Description: GSK_PKIS: JAK3 mean inhibition at 1 uM [Nanosyn]
Please provide the amount together with its unit, number first.

Reference set, count: 5
>  <structureNotation>
Clc1ccc(-c2nn3ncccc3c2-c2ccnc(Nc3ccccc3)n2)cc1

>  <inhibition>
2.99%

$$$$
>  <structureNotation>
Fc1cccc(COc2ccc(Nc3ncnc4sc(-c5ccco5)cc34)cc2Cl)c1

>  <inhibition>
-1.55%

$$$$
>  <structureNotation>
COc1cccc(-n2ncc3c(N/N=C/c4ccc(F)cc4)ncnc32)c1

>  <inhibition>
1.02%

$$$$
>  <structureNotation>
COC(=O)c1sc(-n2cnc3cc(OC)c(OC)cc32)cc1OCc1ccccc1C(F)(F)F

>  <inhibition>
10.7%

$$$$
>  <structureNotation>
N#Cc1c(NC(=O)c2ccc(F)cc2)sc2c1CCCC2

>  <inhibition>
2.52%

$$$$

Endpoint output: inhibition of COC(=O)Nc1nc2ccc(Oc3ccc(NC(=O)Nc4cccc(Cl)c4)cc3)cc2[nH]1 . Value? -0.3%

Endpoint output: inhibition of Cc1cccc2c1NC(=O)/C2=N\Nc1ccc(S(N)(=O)=O)cc1 . Value? 4.14%

Reference source: ChEMBL document CHEMBL1961873
